The reported numbers originate from the supplement of paper PMC12636033.

# Test system: WT Max(13-93) synthetic (M65Nle)
# assay-overview: PBM 8-mer E-score (E-score (rank enrichment, -0.5 to 0.5)); higher = stronger preferential binding
Over roughly 33,000 sequences, “E-score (rank enrichment, -0.5 to 0.5)” has its median near -0.0075; the highest 2% begin near 0.23. The entries come from a sample that favours the highest values as a whole.
# binarize PBM 8-mer E-score: threshold 0.1 inclusive, high side Criterion met, low side Criterion not met

Problem: Hi, just wondering whether CACATGGA shows PBM 8-mer E-score of 0.1 or higher.
Solution: Criterion met

Problem: // query: AACATGGA
Solution: Criterion met

Problem: // query: ATGTGCGG
Solution: Criterion not met

Problem: // query: CCCATGGG
Solution: Criterion not met

Problem: // query: GATAATCA
Solution: Criterion met

Problem: // query: AACATGGC
Solution: Criterion met

Problem: // query: GCGTTTTA
Solution: Criterion not met

Problem: // query: ATGTGCGC
Solution: Criterion met

Problem: // query: TATAATCA
Solution: Criterion met

Problem: // query: CACATGAC
Solution: Criterion met

Problem: // query: GACATGGA
Solution: Criterion not met

Problem: // query: CACATGGG
Solution: Criterion met

Problem: // query: GATAATCC
Solution: Criterion not met

Problem: // query: TGCTTGAA
Solution: Criterion not met

Problem: // query: CACATGGC
Solution: Criterion met

Problem: // query: AACATGGG
Solution: Criterion met

Problem: // query: ATTAAACC
Solution: Criterion not met

Problem: // query: ACGTGCGA
Solution: Criterion met

Problem: // query: AGCTAATG
Solution: Criterion not met

Problem: // query: AGGGTTCG
Solution: Criterion not met

Problem: // query: ATTAAACA
Solution: Criterion not met

Problem: // query: ATTAAACG
Solution: Criterion met

* * *

# System: WT Max(13-93) synthetic (M65Nle)
# assay-overview: PBM 8-mer E-score (E-score (rank enrichment, -0.5 to 0.5)); higher = stronger preferential binding
In all, about 33,000 sequences were measured (“E-score (rank enrichment, -0.5 to 0.5)”: median about -0.0075, highest 2% from about 0.23 on). The sample as a whole holds a higher share of the highest values than the screen did.
Classification by PBM 8-mer E-score follows these ranges: bin 1 = under 0.04, bin 2 = from 0.04 up to 0.2, bin 3 = 0.2 and over

Problem: Exam item: assign AGGTGGAT to the correct category.
Solution: bin 1

Problem: // query: ATCATCAA
Solution: bin 1

Problem: // query: GACATAAC
Solution: bin 2

Problem: // query: GCGTGGAA
Solution: bin 2

Problem: // query: ACAATTCA
Solution: bin 2

Problem: // query: ACGTGGAC
Solution: bin 3

Problem: // query: ATCATATG
Solution: bin 3

Problem: // query: TTGATAAA
Solution: bin 3

Problem: // query: CCGTGGAG
Solution: bin 1

Problem: // query: CCCCCATC
Solution: bin 2

Problem: // query: ACGTGCCT
Solution: bin 3

Problem: // query: ACCGCGCT
Solution: bin 1

Problem: // query: ATCATATC
Solution: bin 2

Problem: // query: GCGTGCCA
Solution: bin 1

Problem: // query: AGTAGCTA
Solution: bin 2

Problem: // query: CTGCCCCC
Solution: bin 1

Problem: // query: AACATAAC
Solution: bin 3

Problem: // query: TCGTGGAA
Solution: bin 2

Problem: // query: ATCATCAT
Solution: bin 3

Problem: // query: CCGTGCCA
Solution: bin 1

Problem: // query: AAATGCGA
Solution: bin 1
